Answer each item with its documented % DAMGO (1 μM).
# Tested on: mu opiate receptor (MOR)
# MEASUREMENT_PROTOCOL: MOR agonist activity using [35S]GTPγS binding assay in striatal membranes
# Type: biochemical
# SETUP_CONDITIONS: 1 μM compound relative to DAMGO
Give bare numbers, in %.

Look up % DAMGO (1 μM) for the entries below, preserving their order.
1. CC1CCC(C(C)C)C(OCC(O)CN2CCSC2)C1 (stereo not drawn) [Compound A0002]
2. CC1CCCC(OCC(O)CN2CC(C)OC(C)C2)C1 (stereo not drawn) [Compound A0021]
3. CC1CN(CC(O)COc2cccc(F)c2)CC(C)O1 (stereo not drawn) [Compound A0049]
4. COc1ccc(OCC(O)CN2CCOc3ccccc32)cc1 (stereo not drawn) [Compound A0076]

1: 86.6; 2: 112.4; 3: 134.2; 4: 78.6

For each of the items listed, what is its % DAMGO (1 μM)?
1. Cc1ccc(C(C)C)c(OCC(O)CN2CC(C)OC(C)C2)c1 (stereo not drawn) [Compound A0028]
2. CC1CCC(C(C)C)C(OCC(O)CN2CCC(=O)CC2)C1 (stereo not drawn) [Compound A0060]
3. CC1CCC(C(C)C)C(OCC(O)Cn2cccc2)C1 (stereo not drawn) [Compound A0038]
4. CC1CCC(C(C)C)C(OCC(O)CN2CCCC2)C1 (stereo not drawn) [Compound A0001]
5. CC1CCC(C(C)C)C(OCC(O)CN2CC(C)OC(C)C2)C1 (stereo not drawn) [Compound A3333]

[73.8, 68.6, 85.0, 78.9, 101.0]

====

Would you mind telling me the reported MOR agonist activity, percent [35S]GTPγS binding at the stated compound concentration of each entry?
# Test system: mu opiate receptor (MOR)
# MEASUREMENT_PROTOCOL: MOR agonist activity using [35S]GTPγS binding assay in striatal membranes
# Type: biochemical
# SETUP_CONDITIONS: Series B; 1 μM compound; [35S]GTPγS binding to Gαo, striatal membranes
One number for each entry, in %.

For each of the items listed, what is its MOR agonist activity, percent [35S]GTPγS binding at the stated compound concentration?
1. COc1c2c(cc3c1C(CC(=O)CCc1ccc(O)cc1)[N+](C)(C)CC3)OCO2 (centres unmarked)
2. COc1ccc(CCC(O)CC2c3c(cc4c(c3OC)OCO4)CCN2C)cc1 (centres unmarked)
3. COc1ccccc1C(=O)CC1c2c(cc3c(c2OC)OCO3)CC[N+]1(C)C (centres unmarked)
4. COc1ccc(CCCCC2c3c(cc4c(c3OC)OCO4)CC[N+]2(C)C)cc1 (centres unmarked)
5. COc1ccc(C(=O)CC2c3c(cc4c(c3OC)OCO4)CC[N+]2(C)C)cc1OC (centres unmarked)

1: 357.7; 2: 223.4; 3: 234.6; 4: 288.8; 5: 233.3

Each of the following entries comes with a recorded value; kindly state MOR agonist activity, percent [35S]GTPγS binding at the stated compound concentration for each.
1. COc1c2c(cc3c1C(CC(=O)c1ccc(O)c(C)c1)[N+](C)(C)CC3)OCO2 (centres unmarked)
2. COc1c2c(cc3c1C(CC(=O)Cc1ccccc1C)N(C)CC3)OCO2 (centres unmarked)
3. COc1ccc(CCC(=O)CC2c3c(cc4c(c3OC)OCO4)CC[N+]2(C)C)cc1 (centres unmarked)

219.0
299.8
213.6
